FYI, the data here is from ChEMBL document CHEMBL1201862.

test system: RXF 631; experiment: NCI tumour cell line growth inhibition, 48 h
Activity calls are given as the source filed them. No stated cut-off is given here; in the data, active = GI50 up to about 1.1 µM and inactive = higher.
quantityKind: GI50

[
  {
    "compound": "CCC1(c2ccncc2)CCC(=O)NC1=O (stereo not given) [ROGLETIMIDE]",
    "assayResult": "> 100 µM (inactive)"
  },
  {
    "compound": "CCOC1(COP(=O)(OCc2ccccc2)OCc2ccccc2)COC(COP(=O)(OCc2ccccc2)OCc2ccccc2)(OCC)CO1 (stereo not given)",
    "assayResult": "9.44 µM (inactive)"
  },
  {
    "compound": "COc1cccc(/C=C2\\CCC(CN(C)C)C2=O)c1 (stereo not given)",
    "assayResult": "6.59 µM (inactive)"
  },
  {
    "compound": "CCN(CC)CCOc1ccc(C(=C2CCCCC2)c2ccc(OCCN(CC)CC)cc2)cc1",
    "assayResult": "1.46 µM (inactive)"
  },
  {
    "compound": "CN1CC(=O)N(C)c2[nH]cnc2C1=O",
    "assayResult": "> 100 µM (inactive)"
  },
  {
    "compound": "CN(C)CCNC(=O)c1cccc2ncc(-c3ccccc3)nc12",
    "assayResult": "9.59 µM (inactive)"
  },
  {
    "compound": "Cc1cc(Cl)ccc1NC(=O)CC1SC(N)=NC1=O (stereo not given)",
    "assayResult": "> 100 µM (inactive)"
  },
  {
    "compound": "O=C1c2cccc3cc([N+](=O)[O-])cc(c23)C(=O)N1NC1=NCCN1",
    "assayResult": "> 100 µM (inactive)"
  },
  {
    "compound": "COc1ccccc1/C=C1\\CCC(Cc2ccccc2)(CN(C)C)C1=O (stereo not given)",
    "assayResult": "1.85 µM (inactive)"
  },
  {
    "compound": "C=C(C)[C@H](O)C(O)CC(C)[C@@H]1CCC23CC12CCC1[C@@]2(C)CCC(OC(C)=O)C(C)(C)C2CC(OC2OC(COC(C)=O)C(O)C(O)C2O)[C@]13C (stereo not given in full)",
    "assayResult": "6.12 µM (inactive)"
  }
]

----------
GI50 for assorted molecules
tested on: HOP-92; test: NCI tumour cell line growth inhibition, 48 h
The source made the active and inactive calls. Rule as the data show it: active = GI50 up to about 1.1 µM and inactive = higher.

[
  {
    "smilesNotation": "COc1ccc(C(N)=O)cc1/N=N/N(C)C",
    "GI50": "> 100 µM (inactive)"
  },
  {
    "smilesNotation": "CCOc1ccc(N/C(Cl)=C(Cl)\\C(=C(\\Nc2ccc(OCC)cc2)n2nnc3ccccc32)[N+](=O)[O-])cc1",
    "GI50": "2.25 µM (inactive)"
  },
  {
    "smilesNotation": "COC(=O)C(C)(C)/N=C/N(C)C",
    "GI50": "> 100 µM (inactive)"
  },
  {
    "smilesNotation": "O=C(/C=C/c1ccccc1O)c1cccc2ccccc12",
    "GI50": "> 52.2 µM (inactive)"
  },
  {
    "smilesNotation": "N=c1nc(N)c2cc3c(N)nc(=N)c3cc12",
    "GI50": "3.94 µM (inactive)"
  }
]

----------
In this section, each of the compounds is paired with its reported GI50.
test system: MOLT-4; assay: NCI tumour cell line growth inhibition, 48 h
The source made the active and inactive calls. No stated cut-off is given here; in the data, active = GI50 up to about 1.1 µM and inactive = higher.

[
  {
    "compound": "COc1ccc(NC(C)=O)cc1N1C(=O)/C(=C\\c2cc(OC)c(OC)c(OC)c2)SC1c1ccccc1 (stereo not given)",
    "GI50": "19.3 µM (inactive)"
  },
  {
    "compound": "O=C(NN1C(=O)c2ccccc2C1=O)c1ccccc1Nc1ccccc1C(=O)NN1C(=O)c2ccccc2C1=O",
    "GI50": "> 100 µM (inactive)"
  },
  {
    "compound": "c1ccc(CCN2CCc3[nH]c4ccccc4c3C2)cc1",
    "GI50": "26.5 µM (inactive)"
  },
  {
    "compound": "C=C1C(=O)O[C@@H]2[C@H]1CCC(C)=C1C=CC(=O)[C@]12C",
    "GI50": "10.9 µM (inactive)"
  },
  {
    "compound": "Cc1ccccc1NC(=O)C1C(=O)N(c2ccccc2C)C(=O)/C1=N\\N (stereo not given)",
    "GI50": "> 100 µM (inactive)"
  }
]
